# System: Kv1.6 channels
# measurement.notes: Two-electrode voltage-clamp on Kv1.6 expressed in X. laevis oocytes
# applied.conditions: read-out: IC50 for Kv1.6; two-electrode voltage-clamp, X. laevis oocytes, concentration-response curve fitted with Hill equation, mean ± standard error, n ≥ 3
Ends that are not written are not given here.
readout.label: IC50

| substance | target.or.system | IC50 |
| --- | --- | --- |
| rAtPDF2.3: Arabidopsis thaliana plant defensin AtPDF2.3 produced recombinantly in Pichia pastoris (RTCESKSHRFKGPCVSTHNCANVCHNEGFGGGKCRGFRRRCYCTRHC; ends and bridges not checked; cysteine pairing not given here) | Kv1.6 channels | 978 nM |
| AtPDF2.3 [K33A][G36N]: rAtPDF2.3 variant containing only Asparagine36 (CXN toxin signature) (RTCESKSHRFKGPCVSTHNCANVCHNEGFGGGACRNFRRRCYCTRHC; ends and bridges not checked; cysteine pairing not given here) | Kv1.6 channels | 366 nM |
| rAtPDF2.3[K33A]: rAtPDF2.3 variant with neither Lysine33 nor Asparagine36, devoid of the toxin signature (RTCESKSHRFKGPCVSTHNCANVCHNEGFGGGACRGFRRRCYCTRHC; ends and bridges not checked; cysteine pairing not given here) | Kv1.6 channels | 3500 nM |

Q) For the substance rAtPDF2.3[G36N]: rAtPDF2.3 variant with both Lysine33 and Asparagine36 (KCXN toxin signature) (RTCESKSHRFKGPCVSTHNCANVCHNEGFGGGKCRNFRRRCYCTRHC; ends and bridges not checked; cysteine pairing not given here) , what IC50 is on record?
A) 138 nM

###

# Test system: Kv1.2 channels
# measurement.notes: Two-electrode voltage-clamp on Kv1.2 expressed in X. laevis oocytes
# applied.conditions: read-out: IC50 for Kv1.2; two-electrode voltage-clamp, X. laevis oocytes, concentration-response curve fitted with Hill equation, mean ± standard error, n ≥ 3
Ends that are not written are not given here.
readout.label: pIC50
The value called pIC50 is obtained by taking minus log10 of the concentration in mol/L.

| substance | pIC50 |
| --- | --- |
| AtPDF2.3 [K33A][G36N]: rAtPDF2.3 variant containing only Asparagine36 (CXN toxin signature) (RTCESKSHRFKGPCVSTHNCANVCHNEGFGGGACRNFRRRCYCTRHC; ends and bridges not checked; cysteine pairing not given here) | 5.86 |
| rAtPDF2.3[K33A]: rAtPDF2.3 variant with neither Lysine33 nor Asparagine36, devoid of the toxin signature (RTCESKSHRFKGPCVSTHNCANVCHNEGFGGGACRGFRRRCYCTRHC; ends and bridges not checked; cysteine pairing not given here) | 5.69 |
| rAtPDF2.3: Arabidopsis thaliana plant defensin AtPDF2.3 produced recombinantly in Pichia pastoris (RTCESKSHRFKGPCVSTHNCANVCHNEGFGGGKCRGFRRRCYCTRHC; ends and bridges not checked; cysteine pairing not given here) | 5.89 |

Please turn your attention to the following entry.
Q) If you can, please state the reported pIC50 value of rAtPDF2.3[G36N]: rAtPDF2.3 variant with both Lysine33 and Asparagine36 (KCXN toxin signature) (RTCESKSHRFKGPCVSTHNCANVCHNEGFGGGKCRNFRRRCYCTRHC; ends and bridges not checked; cysteine pairing not given here) .
A) 6.21
